The measurements presented in this section are drawn from ChEMBL document CHEMBL4321798.

pIC50: −log10 of the molar value.
Hi! I'm sharing some pIC50 results obtained with Histone deacetylase 1 (Homo sapiens).
Sequence (Q13547 whole entry): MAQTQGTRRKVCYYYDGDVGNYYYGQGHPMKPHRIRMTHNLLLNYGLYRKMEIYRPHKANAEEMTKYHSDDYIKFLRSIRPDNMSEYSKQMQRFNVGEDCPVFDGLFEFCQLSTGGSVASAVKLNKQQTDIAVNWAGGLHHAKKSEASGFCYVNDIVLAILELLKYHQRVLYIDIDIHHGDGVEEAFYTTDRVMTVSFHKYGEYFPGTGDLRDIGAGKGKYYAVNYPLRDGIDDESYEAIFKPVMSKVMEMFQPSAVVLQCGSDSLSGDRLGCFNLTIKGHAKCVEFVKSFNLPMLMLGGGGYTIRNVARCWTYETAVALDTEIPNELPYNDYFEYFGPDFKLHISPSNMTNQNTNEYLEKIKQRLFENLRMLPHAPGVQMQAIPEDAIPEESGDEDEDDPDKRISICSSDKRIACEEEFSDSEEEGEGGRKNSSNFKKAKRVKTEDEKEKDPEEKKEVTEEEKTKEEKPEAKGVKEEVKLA

{"sample_smiles": "CCCC(CCC)C(=O)O", "pIC50": 4.40}
{"sample_smiles": "CC(C)[C@H]1NC(=O)[C@H]2CSSCC/C=C/[C@H](CC(=O)N[C@H](C)C(=O)N2)OC(=O)C[C@@H]1O", "pIC50": 8.48}
{"sample_smiles": "Cc1nc2ccccc2n1Cc1ccc(C(=O)NO)cc1F", "pIC50": 5.36}

###

- assay_procedure: Inhibition of maize HD1-A
- Design: species or system Zea mays

{"sample_smiles": "Cn1cc(/C=C/C(=O)c2cccc(F)c2)cc1/C=C/C(=O)NO", "unit_annotation": "µM", "IC50": 0.1}
